The reported measurements were obtained from the OligoGym collection.

target: AKT1; details: ASO; further: test concentration or dose not given here
These antisense oligonucleotides have a phosphorothioate backbone; sugars and methylation of C are not fully specified.
In this section, each of the sequences is paired with its reported remaining target (mRNA or protein) (fraction of control).
# output: bare number, no unit

// solved cases for remaining target (mRNA or protein) (fraction of control) follow
{"columns": ["seqString", "dataValue"],
 "data": [
  ["CCCTGTGCCCTGTCCCAG", 0.45],
  ["CAACCCTCCTTCACAATA", 0.76],
  ["GTGCCGCAAAAGGTCTTC", 0.34],
  ["ACAGCGTGGCTTCTCTCA", 0.88]
]}

Ask: Find remaining target (mRNA or protein) (fraction of control) (AKT1) for the entry TCAAAATACCTGGTGTCA; further: test concentration or dose not given here
Reply: 0.49

Ask: Given the entry CGAAAAGGTCAAGTGCTA , what remaining target (mRNA or protein) (fraction of control) was observed with AKT1?; further: test concentration or dose not given here
Reply: 0.59

Ask: Quick check: remaining target (mRNA or protein) (fraction of control) on AKT1, item GGCTTGAAGGGTGGGCTG ?; further: test concentration or dose not given here
Reply: 0.59

Ask: Please tell me: remaining target (mRNA or protein) (fraction of control) of AGCCAATGAAGGTGCCAT , system AKT1?; further: test concentration or dose not given here
Reply: 0.33
